I'd be grateful if you could share measured Cholesterol synthesis (% of vehicle control) for these entries.
# Tested on: HepG2
# method summary: Percent reduction of cholesterol synthesis in human hepatoma cell line HepG2 at 1000 uM concentration
# Format: functional
Number only, in %; omit the unit.

Tell me reported Cholesterol synthesis (% of vehicle control) for CC(=O)OCOC(=O)CC(O)(CSCCCCCCc1ccc(Cl)cc1Cl)C(=O)OCOC(C)=O (centres undefined) , tested with HepG2.
13

Please state recorded Cholesterol synthesis (% of vehicle control) (tested on HepG2) of O=C(O)CC(O)(CC(=O)CCCCCCc1ccc(Cl)cc1Cl)C(=O)O (centres undefined)
102

What measured Cholesterol synthesis (% of vehicle control) is associated with O=C(O)CC(O)(CSCCCCCc1ccc(Cl)cc1Cl)C(=O)O (centres undefined) on HepG2?
14

Quick check: Cholesterol synthesis (% of vehicle control) on HepG2, item O=C(O)C[C@@](O)(C(=O)O)[C@H](O)C(=O)O ?
15

---

# target desc: ATP-citrate synthase (Homo sapiens)
# method summary: Inhibitory activity against human recombinant ATP-Citrate Lyase activity was measured by the […] dehydrogenase catalyzed reduction of oxaloacetate by NADH
quantity name: pKi
In textbook form, pKi equals minus log to base ten of the concentration in mol/L.

Give its pKi value. Item: O=C(O)CC(O)(CSCCCc1ccc2ccccc2c1)C(=O)O (configuration not stated)
3.52

# input compound: O=C(O)CC(O)(CSCCCCCCc1c(Cl)cncc1Cl)C(=O)O (configuration not stated) ; wanted: its pKi
3.92

---

What pKi was measured for each of the following?
# target desc: ATP-citrate synthase (Rattus norvegicus)
# Sequence (P16638 whole entry): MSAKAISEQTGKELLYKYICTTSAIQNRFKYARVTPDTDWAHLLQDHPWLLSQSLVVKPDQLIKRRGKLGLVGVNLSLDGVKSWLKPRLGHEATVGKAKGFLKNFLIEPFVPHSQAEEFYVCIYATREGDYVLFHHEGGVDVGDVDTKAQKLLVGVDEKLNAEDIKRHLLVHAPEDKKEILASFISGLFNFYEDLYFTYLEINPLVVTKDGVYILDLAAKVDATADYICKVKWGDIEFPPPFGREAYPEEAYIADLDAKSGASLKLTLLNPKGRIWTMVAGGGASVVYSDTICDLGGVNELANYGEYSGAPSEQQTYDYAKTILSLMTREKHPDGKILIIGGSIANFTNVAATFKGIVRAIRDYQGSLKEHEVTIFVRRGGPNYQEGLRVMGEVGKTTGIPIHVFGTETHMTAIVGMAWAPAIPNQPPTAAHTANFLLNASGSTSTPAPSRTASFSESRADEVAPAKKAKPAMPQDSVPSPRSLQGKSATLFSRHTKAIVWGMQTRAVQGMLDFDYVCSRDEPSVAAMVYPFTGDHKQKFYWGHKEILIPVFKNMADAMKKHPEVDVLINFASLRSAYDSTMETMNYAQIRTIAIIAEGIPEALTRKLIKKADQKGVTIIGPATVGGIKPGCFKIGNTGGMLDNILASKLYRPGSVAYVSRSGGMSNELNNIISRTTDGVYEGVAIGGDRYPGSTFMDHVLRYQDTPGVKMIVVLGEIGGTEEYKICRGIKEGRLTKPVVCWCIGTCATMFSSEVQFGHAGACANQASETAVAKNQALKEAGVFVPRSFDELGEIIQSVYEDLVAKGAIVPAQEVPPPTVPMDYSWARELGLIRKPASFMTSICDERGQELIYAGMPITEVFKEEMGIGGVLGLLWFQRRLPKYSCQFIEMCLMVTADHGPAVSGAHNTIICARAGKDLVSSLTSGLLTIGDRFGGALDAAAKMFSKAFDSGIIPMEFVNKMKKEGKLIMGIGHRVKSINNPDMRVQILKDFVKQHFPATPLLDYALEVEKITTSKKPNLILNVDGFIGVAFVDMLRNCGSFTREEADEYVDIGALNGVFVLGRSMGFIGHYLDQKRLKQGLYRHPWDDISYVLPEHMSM
# method summary: Inhibition of recombinant ATP-Citrate Lyase activity as […] dehydrogenase catalyzed reduction of oxaloacetate by NADH
# details: in the assay text read “purified rat ATP-Citrate Lyase” for “recombinant ATP-Citrate Lyase”
For clarity, pKi is expressed as the negative log10 of concentration in mol/L.

Which measured pKi belongs to O=C(O)CC(O)(CSCCCCCCc1ccc(Cl)cc1Cl)C(=O)O (stereo not drawn) , tested on ATP-citrate synthase (Rattus norvegicus)?
5.48

Hi! What's the reported pKi for O=C(O)CC(O)(CSCCCCCCc1ccccc1Cc1ccccc1)C(=O)O (stereo not drawn) on ATP-citrate synthase (Rattus norvegicus)?
4.03

# query: pKi | item O=C(O)CC(O)(CSCCCCCCc1ccccc1[N+](=O)[O-])C(=O)O (stereo not drawn) | system: ATP-citrate synthase (Rattus norvegicus)
4.12

Reported pKi for ATP-citrate synthase (Rattus norvegicus), given O=C(O)CC(O)(CSCCCc1ccc(Cl)cc1Cl)C(=O)O (stereo not drawn) ?
3.41

Lookup: pKi / ATP-citrate synthase (Rattus norvegicus) / O=C(O)CC(O)(CSCCCCCCc1ccc2ccccc2c1)C(=O)O (stereo not drawn)
4.03

# query: pKi | item O=C(O)CC(O)(CSCCCCCCc1ccccc1)C(=O)O (stereo not drawn) | system: ATP-citrate synthase (Rattus norvegicus)
3.15

Param readout = pKi; param system = ATP-citrate synthase (Rattus norvegicus); param query = Cc1ccc(CCCCCCSCC(O)(CC(=O)O)C(=O)O)c(C)c1 (stereo not drawn) ; response: value
3.80

Checklist item: pKi tested on ATP-citrate synthase (Rattus norvegicus), entry COc1ccc(CCCCCCSCC(O)(CC(=O)O)C(=O)O)cc1 (stereo not drawn) , value?
3.55

Request: pKi, test system ATP-citrate synthase (Rattus norvegicus), entry O=C(O)CC(O)(CSCCc1ccc(Cl)cc1Cl)C(=O)O (stereo not drawn)
3.32

ATP-citrate synthase (Rattus norvegicus) / pKi / O=C(O)CC(O)(CSCCCCCCc1ccc(F)cc1F)C(=O)O (stereo not drawn) : value?
3.57

API: value(readout=pKi, system=ATP-citrate synthase (Rattus norvegicus)) for record O=C(O)CC(O)(CSCCCCCCc1cccc2ccccc12)C(=O)O (stereo not drawn)
4.20

Request body: readout pKi, system ATP-citrate synthase (Rattus norvegicus), query O=C(O)CC(O)(CSCCCCCCc1c(Cl)cc(Cl)cc1-c1ccccc1)C(=O)O (stereo not drawn) . Return the value.
5.00

Observed pKi on ATP-citrate synthase (Rattus norvegicus) for O=C(O)CC(O)(CSCCCCCc1ccc(Cl)cc1Cl)C(=O)O (stereo not drawn) , please.
5.17

---

Kindly state Ki for each of the entries shown.
# target desc: ATP-citrate synthase (Rattus norvegicus)
# method summary: Inhibitory activity against rat ATP-citrate lyase activity by the […] dehydrogenase catalyzed reduction of oxaloacetate by NADH.
# output: bare number, implied unit µM

Find the recorded Ki belonging to O=C(O)CC(O)CSCCCCCCc1ccc(Cl)cc1Cl (stereo unspecified) and report it.
88

Could you share which Ki value was measured for O=C(O)CC(O)(CSCCCCCCc1ccccc1Cl)C(=O)O (stereo unspecified) ?
69

Given the compound O=C(O)CC(O)(CSCCCCCc1ccccc1)C(=O)O (stereo unspecified) , what is its reported Ki?
490

Give the measured Ki of CN(CCCCSCC(O)(CC(=O)O)C(=O)O)S(=O)(=O)c1ccc(Cl)cc1Cl (stereo unspecified) .
178

Would you mind telling me what Ki value was observed for O=C(O)CC(O)(CSCCCCCOc1ccc(Cl)cc1Cl)C(=O)O (stereo unspecified) ?
67

Would you mind telling me what Ki value was observed for O=C(O)CC(O)(CSCCCC/C=C\c1ccc(Cl)cc1Cl)C(=O)O (stereo unspecified) ?
7.4

Please report the recorded Ki for O=C(O)CC(O)(CSCCCCCc1ccccc1-c1ccccc1)C(=O)O (stereo unspecified) .
21

Look up Ki for this compound: O=C(O)CC(O)(CSCCCCCCc1ccc(Br)cc1)C(=O)O (stereo unspecified)
31

So what does the record say about Ki for O=C(O)CC(O)(CSCCCCCCc1ccc(O)cc1)C(=O)O (stereo unspecified) ?
420

Tell me the measured Ki of O=C(O)CC(O)(CSCCCCCCc1ccc(C(=O)O)cc1)C(=O)O (stereo unspecified) , please.
420

Give its Ki value. Item: NS(=O)(=O)c1ccc(CCCCCCSCC(O)(CC(=O)O)C(=O)O)cc1 (stereo unspecified)
500

---

# target desc: ATP-citrate synthase (Homo sapiens, UniProt P53396)
# Sequence (P53396 whole entry): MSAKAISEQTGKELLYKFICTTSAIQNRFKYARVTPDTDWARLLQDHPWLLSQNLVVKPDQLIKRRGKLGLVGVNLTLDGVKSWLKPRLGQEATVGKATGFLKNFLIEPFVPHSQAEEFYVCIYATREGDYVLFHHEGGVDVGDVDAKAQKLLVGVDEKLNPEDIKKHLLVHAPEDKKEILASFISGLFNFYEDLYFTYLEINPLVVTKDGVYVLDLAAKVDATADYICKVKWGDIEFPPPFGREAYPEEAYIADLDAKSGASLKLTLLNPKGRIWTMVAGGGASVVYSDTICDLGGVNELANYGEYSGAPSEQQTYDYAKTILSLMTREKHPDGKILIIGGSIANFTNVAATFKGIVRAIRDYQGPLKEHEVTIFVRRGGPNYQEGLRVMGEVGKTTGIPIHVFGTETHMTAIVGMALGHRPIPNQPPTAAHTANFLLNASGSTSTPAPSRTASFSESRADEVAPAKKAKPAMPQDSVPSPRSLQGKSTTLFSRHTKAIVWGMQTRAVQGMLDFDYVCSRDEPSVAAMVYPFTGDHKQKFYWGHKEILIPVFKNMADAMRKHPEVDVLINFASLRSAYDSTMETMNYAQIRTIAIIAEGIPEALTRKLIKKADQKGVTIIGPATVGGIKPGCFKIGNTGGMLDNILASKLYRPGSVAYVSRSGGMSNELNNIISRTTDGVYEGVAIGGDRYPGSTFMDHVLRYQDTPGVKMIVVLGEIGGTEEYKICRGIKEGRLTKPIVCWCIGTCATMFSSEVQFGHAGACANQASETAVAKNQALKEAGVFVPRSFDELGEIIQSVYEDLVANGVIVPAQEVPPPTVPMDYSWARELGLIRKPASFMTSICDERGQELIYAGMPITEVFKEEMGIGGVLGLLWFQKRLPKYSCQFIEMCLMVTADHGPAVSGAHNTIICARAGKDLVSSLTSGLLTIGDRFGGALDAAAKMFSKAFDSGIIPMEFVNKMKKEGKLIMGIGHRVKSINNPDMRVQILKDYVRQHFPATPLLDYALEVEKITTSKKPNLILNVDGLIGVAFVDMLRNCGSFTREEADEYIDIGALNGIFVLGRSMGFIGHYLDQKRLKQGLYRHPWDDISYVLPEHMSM
# method summary: Inhibitory activity against human recombinant ATP-Citrate Lyase was measured by the […] dehydrogenase catalyzed reduction of oxaloacetate by NADH
quantity name: pKi
On this scale, pKi is minus log10 of a concentration expressed in M (mol/L).

pKi lookup needed for O=C(O)CC(O)(CSCCCCCCc1ccccc1)C(=O)O (stereo unspecified) , thanks.
3.49
